# assay.target: T1, MSL2 (Drosophila melanogaster, UniProt P50534 1-773)
# T1 sequence: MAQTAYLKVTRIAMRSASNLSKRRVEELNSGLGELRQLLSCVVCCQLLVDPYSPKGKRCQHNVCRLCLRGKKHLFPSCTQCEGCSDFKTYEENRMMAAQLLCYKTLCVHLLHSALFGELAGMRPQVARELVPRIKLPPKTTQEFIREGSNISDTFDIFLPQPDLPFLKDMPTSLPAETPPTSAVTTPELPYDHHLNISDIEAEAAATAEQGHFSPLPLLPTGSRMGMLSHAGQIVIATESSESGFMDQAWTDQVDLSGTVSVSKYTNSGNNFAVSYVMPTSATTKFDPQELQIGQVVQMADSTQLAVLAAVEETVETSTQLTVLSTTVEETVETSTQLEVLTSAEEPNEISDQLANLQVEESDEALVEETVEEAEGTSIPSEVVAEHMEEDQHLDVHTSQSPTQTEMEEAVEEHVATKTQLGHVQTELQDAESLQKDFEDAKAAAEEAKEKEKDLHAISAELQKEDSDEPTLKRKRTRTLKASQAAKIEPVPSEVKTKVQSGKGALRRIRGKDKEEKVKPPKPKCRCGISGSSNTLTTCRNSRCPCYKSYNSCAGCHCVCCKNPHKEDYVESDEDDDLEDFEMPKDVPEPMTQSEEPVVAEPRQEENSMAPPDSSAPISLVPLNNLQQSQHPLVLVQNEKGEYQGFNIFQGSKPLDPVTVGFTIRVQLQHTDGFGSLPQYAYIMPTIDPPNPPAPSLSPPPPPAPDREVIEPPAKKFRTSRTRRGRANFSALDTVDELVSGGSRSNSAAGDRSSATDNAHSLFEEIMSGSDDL
# protocol.summary: EMSA
quantity.name: pKd
Numbers only, as −log10 of the molar value.

query: Which pKd reading was recorded for the binder DBF12-L15 dsRNA 40 bp (dsRNA) RNA 1: UGCGGCCAUCUCUUUCGUUUUGAUGUUUCUACGCCAUGUG RNA 2: CACAUGGCGUAGAAACAUCAAAACGAAAGAGAUGGCCGCA ?
result: 7.68
